Target: PARP1 WT (UniProt P09874 1-1014)
Sequence (P09874 whole entry): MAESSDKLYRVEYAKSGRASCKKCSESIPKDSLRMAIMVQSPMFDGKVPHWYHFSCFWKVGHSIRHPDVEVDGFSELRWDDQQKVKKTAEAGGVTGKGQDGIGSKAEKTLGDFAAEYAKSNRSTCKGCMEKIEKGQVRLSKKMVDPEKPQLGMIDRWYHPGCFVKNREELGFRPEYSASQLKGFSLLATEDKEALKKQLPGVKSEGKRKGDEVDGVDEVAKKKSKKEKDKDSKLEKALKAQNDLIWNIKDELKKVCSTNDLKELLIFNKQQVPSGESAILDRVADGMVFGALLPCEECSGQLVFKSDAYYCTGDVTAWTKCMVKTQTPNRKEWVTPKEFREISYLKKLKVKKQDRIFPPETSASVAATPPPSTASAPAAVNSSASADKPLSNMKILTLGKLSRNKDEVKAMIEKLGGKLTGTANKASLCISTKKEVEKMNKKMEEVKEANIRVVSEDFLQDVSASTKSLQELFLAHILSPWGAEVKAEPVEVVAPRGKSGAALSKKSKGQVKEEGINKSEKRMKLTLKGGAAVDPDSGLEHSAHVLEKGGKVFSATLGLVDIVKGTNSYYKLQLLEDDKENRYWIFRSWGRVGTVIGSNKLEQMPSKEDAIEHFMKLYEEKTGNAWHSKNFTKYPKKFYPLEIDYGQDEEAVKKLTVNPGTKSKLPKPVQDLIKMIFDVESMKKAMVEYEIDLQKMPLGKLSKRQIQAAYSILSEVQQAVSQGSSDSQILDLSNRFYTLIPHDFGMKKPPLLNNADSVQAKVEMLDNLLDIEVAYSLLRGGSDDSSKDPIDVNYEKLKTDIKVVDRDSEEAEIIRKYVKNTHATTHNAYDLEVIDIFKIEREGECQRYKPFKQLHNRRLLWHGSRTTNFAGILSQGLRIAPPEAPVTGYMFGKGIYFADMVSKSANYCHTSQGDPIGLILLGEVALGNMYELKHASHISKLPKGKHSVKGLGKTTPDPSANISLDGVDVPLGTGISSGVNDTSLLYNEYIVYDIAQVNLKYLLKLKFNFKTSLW
Experiment: fluorescence polarization
Measurement Name: Kd (nM)
State the answer as a number, implicitly in nM.

[in] Fill in reported Kd for this entry: 18-bp DNA duplex (dsDNA) DNA 1: GGGTTGCGGCCGCTTGGG DNA 2: CCCAAGCGGCCGCAACCC
[out] 210
